# SYSTEM: N-terminal CRD of hGalectin-4 (Gal-4N) (Homo sapiens, UniProt P56470)
# Construct: N-terminal CRD of hGalectin-4 (amino acids 1–150, including an additional C-terminus His-Tag); His-Tag (C, cleaved yes); made in house; host or cells: E. coli BL21 (pET29b)
# Sequence (P56470 1-150): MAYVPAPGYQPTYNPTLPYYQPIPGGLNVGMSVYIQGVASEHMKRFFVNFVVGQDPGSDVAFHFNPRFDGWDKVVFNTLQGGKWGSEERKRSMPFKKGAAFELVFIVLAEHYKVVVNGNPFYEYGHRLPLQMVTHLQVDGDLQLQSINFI
# EXPERIMENT: 1H Saturation Transfer Difference (STD) NMR epitope mapping
# Type: binding
# PARTICULARS: 1H-residue H1Galα
ENDPOINT: STD% (%)
Reply numerically in %, unit not repeated.

Examples with answers:
{"columns": ["MOLECULE", "OBS_VALUE"],
 "data": [
  ["CC(=O)NC1C(OC2C(O)C(O)OC(CO)C2O)OC(CO)C(O)C1OC1OC(CO)C(O)C(OC2OC(CO)C(O)C(O)C2O)C1OC1OC(C)C(O)C(O)C1O (stereo not shown) [B type-4 (penta)]", 100],
  ["CC(=O)N[C@@H]1[C@@H](O[C@@H]2O[C@H](CO)[C@H](O)[C@H](O[C@H]3O[C@H](CO)[C@H](O)[C@H](O)[C@H]3O)[C@H]2O[C@@H]2O[C@@H](C)[C@@H](O)[C@@H](O)[C@@H]2O)[C@H](O)[C@@H](CO)O[C@H]1O [B type-1 (tetra)]", 56]
]}

Item under review: CC1OC(OC2C(OC3C(CO)OC(O)C(O)C3O)OC(CO)C(O)C2OC2OC(CO)C(O)C(O)C2O)C(O)C(O)C1O (stereo not shown) [B type-6 (tetra)] . Reported STD%?
74

Param item = CC(=O)NC1C(O)OC(CO)C(OC2OC(CO)C(O)C(OC3OC(CO)C(O)C(O)C3O)C2OC2OC(C)C(O)C(O)C2O)C1O (stereo not shown) [B type-2 (tetra)] ; retrieve measured STD%.
73
